target: alpha1-antitrypsin, P01009; test: in vitro association of the serpin-finger polypeptide with alpha1-antitrypsin
Sequence (P01009 25-418 limits assumed): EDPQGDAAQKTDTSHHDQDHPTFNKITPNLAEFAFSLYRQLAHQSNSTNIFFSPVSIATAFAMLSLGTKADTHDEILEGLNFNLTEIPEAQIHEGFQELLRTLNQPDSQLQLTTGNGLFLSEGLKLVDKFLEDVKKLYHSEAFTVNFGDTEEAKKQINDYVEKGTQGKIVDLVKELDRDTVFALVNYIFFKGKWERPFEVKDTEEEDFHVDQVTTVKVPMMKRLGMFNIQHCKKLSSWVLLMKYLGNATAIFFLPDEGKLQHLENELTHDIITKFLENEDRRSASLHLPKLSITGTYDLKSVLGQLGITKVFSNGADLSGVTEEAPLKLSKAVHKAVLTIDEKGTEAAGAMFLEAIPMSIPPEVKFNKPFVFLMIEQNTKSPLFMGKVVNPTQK
Where no end group is shown, it is not given here.
Each entry below lists one item and its recorded in vitro association T1/2 value.
Give the number first and the unit second.

Past entries and their recorded results:
{"columns": ["BINDER", "in vitro association T1/2"],
 "data": [
  ["Ac-TEAAGATAVVIA", "9.5 h"],
  ["Ac-TEAAGAMFLEAIVM", "10 h"],
  ["Ac-TDAAGATAVVIA", "16 h"],
  ["Ac-SEAAASTAVVIA", "1.4 h"],
  ["Ac-TAVVIA [Ac-TAVVIA]", "16 h"]
]}

Value of in vitro association T1/2 reported for the binder Ac-TEAAGAMFFEAIPM is 10 h

Value of in vitro association T1/2 reported for the binder Ac-SEAAASMFLEAI is 4 h

Value of in vitro association T1/2 reported for the binder Ac-SDAAGAMFLEAI is 16 h

Reference for the values: patent US20140045742A1
